meta.source: ChEMBL document CHEMBL4680222

Recorded Activity for the following molecules
Target: NAD-dependent protein deacetylase sirtuin-1 (Homo sapiens)
Sequence (whole entry): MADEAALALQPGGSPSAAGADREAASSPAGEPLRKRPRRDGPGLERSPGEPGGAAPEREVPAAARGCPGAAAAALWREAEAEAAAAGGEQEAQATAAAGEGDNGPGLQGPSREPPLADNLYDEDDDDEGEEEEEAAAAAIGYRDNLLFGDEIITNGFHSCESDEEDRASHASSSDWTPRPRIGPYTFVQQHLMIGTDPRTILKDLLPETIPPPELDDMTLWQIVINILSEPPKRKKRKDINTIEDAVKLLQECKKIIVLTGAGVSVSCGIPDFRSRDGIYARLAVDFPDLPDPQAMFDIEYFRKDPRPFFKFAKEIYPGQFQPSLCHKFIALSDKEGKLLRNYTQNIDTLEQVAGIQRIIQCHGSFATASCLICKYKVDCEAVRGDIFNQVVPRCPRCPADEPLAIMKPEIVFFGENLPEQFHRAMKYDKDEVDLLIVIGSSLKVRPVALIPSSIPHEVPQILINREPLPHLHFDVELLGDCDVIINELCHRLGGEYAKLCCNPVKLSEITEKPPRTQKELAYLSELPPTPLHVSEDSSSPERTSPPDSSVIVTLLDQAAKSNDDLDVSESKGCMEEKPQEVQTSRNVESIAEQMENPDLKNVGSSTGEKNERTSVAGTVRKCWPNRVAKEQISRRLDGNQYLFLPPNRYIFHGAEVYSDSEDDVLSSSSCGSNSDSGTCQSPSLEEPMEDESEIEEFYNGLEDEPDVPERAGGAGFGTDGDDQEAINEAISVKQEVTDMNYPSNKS
Assay: Substrate activity at human N-terminal His-tagged SIRT1 (183 to 664 residues) expressed in Escherichia coli at 0.5 uM measured after 2 hrs in presence of NAD+ and trypsin by fluorescence assay
*1 amine or outer side, *2 acyl side, *3 side chain or, on linkers, in order; H or OH if unused. Where a SMILES comes first, the peptide text is derived from it. The star is where a group is joined. AMC = Cc1cc(=O)oc2cc(N*)ccc12; Suc = O=C(CCC(=O)[*:2])[*:1]; Decanoyl = CCCCCCCCCC(=O)*
Report as a plain number; the unit RFU is understood.

Solved cases below.
CCCCCCCCCC(=O)NCCCC[C@H](NC(=O)[C@@H](NC(=O)[C@H](CO)NC(=O)[C@H](CO)NC(C)=O)[C@@H](C)CC)C(=O)Nc1ccc2c(C)cc(=O)oc2c1 (Ac-SSIK(Decanoyl)-{AMC}) | 1.38
CCCCCCCCCC(=O)NCCCC[C@H](NC(=O)[C@H](CCCCN)NC(=O)[C@@H]1CCCN1C(=O)[C@H](CC(N)=O)NC(C)=O)C(=O)Nc1ccc2c(C)cc(=O)oc2c1 (Ac-NPKK(Decanoyl)-{AMC}) | 0.29
CC(=O)NCCCC[C@H](NC(=O)[C@H](CCCNC(=N)N)NC(=O)[C@H](C)NC(=O)[C@@H](NC(C)=O)[C@@H](C)O)C(=O)Nc1ccc2c(C)cc(=O)oc2c1 (Ac-TARK(Ac)-{AMC}) | 0.2
CC[C@H](C)[C@H](NC(C)=O)C(=O)N[C@@H](CCCNC(=N)N)C(=O)N[C@H](C(=O)N[C@@H](CCCCNC(=O)CCC(=O)O)C(=O)Nc1ccc2c(C)cc(=O)oc2c1)[C@@H](C)CC (Ac-IRIK(Suc)-{AMC}) | 0.21
CC(=O)N[C@@H](CC(C)C)C(=O)NCC(=O)N[C@@H](CO)C(=O)N[C@@H](CCCCNC(=O)CCC(=O)O)C(=O)Nc1ccc2c(C)cc(=O)oc2c1 (Ac-LGSK(Suc)-{AMC}) | 0.2
CC(=O)NCCCC[C@H](NC(=O)[C@H](CC(C)C)NC(=O)[C@H](CCCCN)NC(=O)[C@H](Cc1ccc(O)cc1)NC(C)=O)C(=O)Nc1ccc2c(C)cc(=O)oc2c1 (Ac-YKLK(Ac)-{AMC}) | 0.52

In: Query (molecule): CC[C@H](C)[C@H](NC(=O)[C@H](CC(C)C)NC(=O)[C@H](CCCNC(=N)N)NC(C)=O)C(=O)N[C@@H](CCCCNC(C)=O)C(=O)Nc1ccc2c(C)cc(=O)oc2c1 (Ac-RLIK(Ac)-{AMC}) ; field requested: Activity
Out: 0.66

In: Query (molecule): CC(=O)N[C@@H](CO)C(=O)N[C@@H](CC(C)C)C(=O)NCC(=O)N[C@@H](CCCCNC(=O)CCC(=O)O)C(=O)Nc1ccc2c(C)cc(=O)oc2c1 (Ac-SLGK(Suc)-{AMC}) ; field requested: Activity
Out: 0.24

In: Query (molecule): CCCCCCCCCC(=O)NCCCC[C@H](NC(=O)[C@H](CCCNC(=N)N)NC(=O)[C@H](C)NC(=O)[C@@H](NC(C)=O)[C@@H](C)O)C(=O)Nc1ccc2c(C)cc(=O)oc2c1 (Ac-TARK(Decanoyl)-{AMC}) ; field requested: Activity
Out: 0.25

In: Query (molecule): CCCCCCCCCC(=O)NCCCC[C@H](NC(=O)[C@H](CCCNC(=N)N)NC(=O)[C@H](CC(C)C)NC(=O)[C@H](CC(=O)O)NC(C)=O)C(=O)Nc1ccc2c(C)cc(=O)oc2c1 (Ac-DLRK(Decanoyl)-{AMC}) ; field requested: Activity
Out: 0.26

In: Query (molecule): CCCCCCCCCC(=O)NCCCC[C@H](NC(=O)[C@H](CCC(N)=O)NC(=O)[C@@H](NC(=O)[C@H](CCCCN)NC(C)=O)C(C)C)C(=O)Nc1ccc2c(C)cc(=O)oc2c1 (Ac-KVQK(Decanoyl)-{AMC}) ; field requested: Activity
Out: 1.68
